# tgt: human recombinant ALK1 (GST fused to ALK1 intracellular domain [His142-Gln503]) (Homo sapiens)
# Construct: GST fused to ALK1 intracellular domain [His142-Gln503]
# Sequence (P37023 142-503): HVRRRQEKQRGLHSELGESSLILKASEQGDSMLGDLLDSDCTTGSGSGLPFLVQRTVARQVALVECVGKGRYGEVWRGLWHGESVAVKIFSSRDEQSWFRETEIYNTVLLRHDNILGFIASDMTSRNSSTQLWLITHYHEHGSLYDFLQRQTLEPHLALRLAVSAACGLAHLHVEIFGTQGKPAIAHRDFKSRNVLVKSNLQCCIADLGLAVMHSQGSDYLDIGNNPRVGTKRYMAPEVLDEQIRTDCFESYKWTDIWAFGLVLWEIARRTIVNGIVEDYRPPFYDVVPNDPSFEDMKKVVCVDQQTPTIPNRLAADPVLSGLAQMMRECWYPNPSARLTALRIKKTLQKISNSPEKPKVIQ
# assay_name: ALK1-Kinase Flashplate-Assay
# measurement_parameters: 0.5 μM ATP, biotinylated α-casein substrate; read-out: Assay 1 (ALK1-Kinase Flashplate-Assay IC50 class)
pIC50: −log10 of the molar value.
parameter: pIC50

Oc1ccc(Nc2ccn3ncc(-c4ccsc4)c3n2)cc1 [Example 48] ... > 6.00
O=C(O)c1ccc(-c2cnn3ccc(Nc4ccc(Oc5ccccc5)cc4)nc23)cc1 [Example 255] ... > 6.00
OC1CCC(Nc2ccn3ncc(-c4ccc(F)cc4)c3n2)CC1 (stereo not drawn) [Example 401] ... 5.00 to 6.00

Query compound follows.
**Query** Query: pIC50; subject: COc1cc(-c2cnn3ccc(Nc4ccc(C)c(NS(C)(=O)=O)c4)nc23)ccc1O [Example 151]
**Result** > 6.00

The values you see were collected from patent US20080039455A1.
